pKi: −log10 of the molar value.
Record type: pKi measurement. Applies to: Coagulation factor X (Homo sapiens)
assay-endpoint: pKi

Below: 3 compounds and their reported pKi.
CCOc1cc(O[C@H]2CC[C@H](O)CC2)cc(C(Nc2ccc(C(=N)N)cc2)C(=O)O)c1 (stereo partly specified) :: 4.91
CCOc1cc(-c2cccnc2)cc(C(Nc2ccc(C(=N)N)cc2)C(=O)O)c1 (stereo unspecified) :: 5.66
CCOc1cc(O[C@H]2CCOC2)cc([C@@H](Nc2ccc(C(=N)N)cc2)C(=O)O)c1 :: 5.82

[P] COc1cc(C(Nc2ccc(C(=N)N)cc2)C(=O)O)ccc1OCc1ccccc1 (stereo unspecified)
[Q] CCOc1cc(OC2CCOCC2)cc(C(Nc2ccc(C(=N)N)cc2)C(=O)O)c1 (stereo unspecified)
Select one. Lower pKi: P or Q Write the label of whichever entry you select.
Q
(Q: 5.54, P: 6.14)
